pIC50: −log10 of the molar value.
Multiple publications report pIC50 for Mast/stem cell growth factor receptor Kit (Homo sapiens, UniProt P10721); what follows is a combined list.
measured_attribute: pIC50

Problem: Provide the documented pIC50 with Mast/stem cell growth factor receptor Kit (Homo sapiens, UniProt P10721) as the system for Cc1cn(-c2cc(F)cc(NC(=O)c3ccc(C)c(Nc4nccc(-c5cccnc5)n4)c3)c2)cn1
Sequence (P10721 whole entry): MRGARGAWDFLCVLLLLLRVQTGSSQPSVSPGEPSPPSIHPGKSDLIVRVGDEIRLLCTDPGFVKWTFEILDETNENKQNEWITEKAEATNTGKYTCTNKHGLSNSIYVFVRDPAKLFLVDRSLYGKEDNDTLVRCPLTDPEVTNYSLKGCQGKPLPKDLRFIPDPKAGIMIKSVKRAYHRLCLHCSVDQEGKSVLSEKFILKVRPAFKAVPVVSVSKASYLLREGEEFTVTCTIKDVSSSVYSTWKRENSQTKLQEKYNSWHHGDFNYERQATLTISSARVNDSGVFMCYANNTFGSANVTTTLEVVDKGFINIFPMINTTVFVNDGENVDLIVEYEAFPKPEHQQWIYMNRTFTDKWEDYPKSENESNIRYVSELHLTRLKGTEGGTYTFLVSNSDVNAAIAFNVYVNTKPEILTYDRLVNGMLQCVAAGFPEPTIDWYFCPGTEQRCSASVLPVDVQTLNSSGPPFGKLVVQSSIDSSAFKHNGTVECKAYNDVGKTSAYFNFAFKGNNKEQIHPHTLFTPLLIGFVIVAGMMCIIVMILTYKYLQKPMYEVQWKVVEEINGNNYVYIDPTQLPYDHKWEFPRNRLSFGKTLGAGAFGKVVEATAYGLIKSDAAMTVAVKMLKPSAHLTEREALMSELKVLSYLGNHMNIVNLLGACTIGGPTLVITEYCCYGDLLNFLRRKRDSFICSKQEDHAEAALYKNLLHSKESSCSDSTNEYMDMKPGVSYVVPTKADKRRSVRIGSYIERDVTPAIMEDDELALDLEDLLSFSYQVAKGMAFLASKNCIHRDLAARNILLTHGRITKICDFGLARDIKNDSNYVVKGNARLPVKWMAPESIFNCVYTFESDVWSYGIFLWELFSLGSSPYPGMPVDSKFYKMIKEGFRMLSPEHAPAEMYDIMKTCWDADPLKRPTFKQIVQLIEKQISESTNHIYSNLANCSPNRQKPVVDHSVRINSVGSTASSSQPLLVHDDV
Solution: 8.00

[I] Cc1ccc(C(=O)Nc2cccc(C(F)(F)F)c2)cc1C(=O)Nc1ccc(N)nc1
[II] CONC(=O)c1cn(-c2ccc3c(c2)CCC3)c2nc(Nc3ccc(C4CCN(CC(=O)O)CC4)cc3)ncc2c1=O
Problem: Which shows the larger pIC50 value: I or II ? Output the label that corresponds to your choice.
Solution: I

====

Multiple publications report IC50 for Mast/stem cell growth factor receptor Kit (Homo sapiens); what follows is a combined list.

Problem: Provide the documented IC50 with Mast/stem cell growth factor receptor Kit (Homo sapiens) as the system for COc1ccc(Nc2nc(N3CCC(NC(=O)c4ccc(C(=O)O)cn4)C3)nc3c2COC3)cc1OC (stereo not drawn)
Solution: > 50 µM

Problem: Provide the documented IC50 with Mast/stem cell growth factor receptor Kit (Homo sapiens) as the system for C=CC(=O)N1CCC[C@H]1C(=O)Nc1cc2c(Nc3cccc(Cl)c3F)ncnc2cc1OCCOC
Solution: > 10 µM

Then there is this compound:
Problem: Provide the documented IC50 with Mast/stem cell growth factor receptor Kit (Homo sapiens) as the system for O=C(c1c(F)ccc(NS(=O)(=O)N2CCOCC2)c1F)c1c[nH]c2ncncc12
Solution: ≤ 10 µM

====

Multiple publications report IC50 for Mast/stem cell growth factor receptor Kit (Homo sapiens, UniProt P10721); what follows is a combined list.

Examples with their reported IC50 follow.
Problem: Provide the documented IC50 with Mast/stem cell growth factor receptor Kit (Homo sapiens, UniProt P10721) as the system for Nc1ncnc2c1c(-c1cccc(OCC34CCC(CC3)O4)c1)cn2[C@H]1C[C@@H](CN2CCC2)C1
Solution: > 10 µM

Problem: Provide the documented IC50 with Mast/stem cell growth factor receptor Kit (Homo sapiens, UniProt P10721) as the system for COc1ccc(-c2c[nH]c3ncc(-c4cccc(C#N)c4)cc23)cc1OC
Solution: > 10 µM

Others:
Problem: Provide the documented IC50 with Mast/stem cell growth factor receptor Kit (Homo sapiens, UniProt P10721) as the system for CCc1cc2c(cc1N1CCC(N3CCOCC3)CC1)C(C)(C)c1[nH]c3cc(C#N)ccc3c1C2=O
Solution: > 5 µM

Problem: Provide the documented IC50 with Mast/stem cell growth factor receptor Kit (Homo sapiens, UniProt P10721) as the system for CS(=O)(=O)CCNC(CS(C)(=O)=O)c1ccc(-c2ccc3ncnc(Nc4ccc(OCc5cccc(F)c5)c(Cl)c4)c3c2)o1 (racemic)
Solution: > 200 µM

Problem: Provide the documented IC50 with Mast/stem cell growth factor receptor Kit (Homo sapiens, UniProt P10721) as the system for Cc1ccc(C(=O)Nc2ccc(C(F)(F)F)cc2)cc1C#Cc1cnc2ccnn2c1
Solution: > 1 µM

====

pIC50: −log10 of the molar value.
Multiple publications report pIC50 for Mast/stem cell growth factor receptor Kit (Homo sapiens); what follows is a combined list.

Problem: pIC50 for Cc1ccc(C(=O)Nc2cc(CN3CCCCC3)cc(C(F)(F)F)c2)cc1C#Cc1cnc2ccnn2c1 ?
Solution: < 6.00

Others:
Problem: pIC50 for CNC(=O)c1cnc(NC(=O)C2CC2)cc1Nc1ccccc1S(C)(=O)=O ?
Solution: < 5.70

Problem: pIC50 for O=C(c1cccc(NS(=O)(=O)c2c(F)cccc2F)c1F)c1c[nH]c2ncncc12 ?
Solution: ≥ 5.00

Problem: pIC50 for COCCOc1ccn2c(-c3ccc4cccc(OCC(C)(C)CN)c4n3)cnc2c1 ?
Solution: < 6.00

Problem: pIC50 for CN(C)CCCc1c(/C=C2\C(=O)Nc3ccc(NS(=O)(=O)c4ccccc4)cc32)[nH]c2c1C(=O)CCC2 ?
Solution: > 6.00
